Each recorded value in this set is attributed to patent US20260209215A1.

Parameter IC50: see the listing below.
measured target: UniProtKB Q99571
Sequence (Q99571 whole entry): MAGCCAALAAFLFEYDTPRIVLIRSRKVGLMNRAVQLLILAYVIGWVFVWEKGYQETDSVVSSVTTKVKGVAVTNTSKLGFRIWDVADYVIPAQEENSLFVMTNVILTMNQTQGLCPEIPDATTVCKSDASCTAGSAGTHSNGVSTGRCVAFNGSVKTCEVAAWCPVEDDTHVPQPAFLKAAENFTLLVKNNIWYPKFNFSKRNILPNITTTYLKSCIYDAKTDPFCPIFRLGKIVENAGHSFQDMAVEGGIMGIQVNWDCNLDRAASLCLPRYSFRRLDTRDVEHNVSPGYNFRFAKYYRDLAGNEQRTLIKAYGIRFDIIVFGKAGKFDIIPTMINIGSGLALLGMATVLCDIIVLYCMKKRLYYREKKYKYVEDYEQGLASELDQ
procedure summary: Measurement of Ca2+ influx in transfected 1321N1 astrocytoma cells (P2X4 inhibitory potency)
reported conditions: agonist-mediated Ca2+ influx, FLUO-4, 1321N1 astrocytoma cells; antagonists added 30 min before agonist

Reference set (5 entries):
• CCc1noc(-c2ccc(OC)c(NCC(=O)N3CCc4ccc(Br)cc43)c2)n1 [Example 9] = 40 to 69 nM
• Cc1noc(-c2ccc(F)c(NCC(=O)N3CCc4c3cccc4C(C)(C)O)c2)n1 [Example 53] = 20 to 39 nM
• Cc1nsc(-c2ccc(C)c(NCC(=O)N3CCc4c3cccc4[C@@](C)(O)CO)c2)n1 [Example 64] = 0.1 to 19 nM
• COc1cccc2c1CCN2C(=O)CNc1cc(-c2nc(C)ns2)cc(F)c1OC [Example 8] = 70 to 99 nM
• Cc1nsc(-c2ccc(C)c(NCC(=O)N3CCc4c3cccc4N3CC(=O)NC3=O)c2)n1 [Example 54] = 70 to 99 nM

**Query** Value lookup for IC50; key = CCc1nsc(-c2ccc(C)c(NCC(=O)N3CCc4c3cccc4S(=O)(=O)NC)c2)n1 [Example 26]
**Result** 0.1 to 19 nM

**Query** // lookup IC50 for CC(=O)c1cccc2c1CCN2C(=O)CNc1cc(-c2nc(C)ns2)ccc1C [Example 37]
**Result** 20 to 39 nM

**Query** # lookup: IC50 of Cc1nsc(-c2ccc(C)c(NCC(=O)c3c[nH]c4c(C(C)O)cccc34)c2)n1 (stereo not drawn) [Example 112]
**Result** 0.1 to 19 nM

**Query** Which measured IC50 value corresponds to CCc1noc(-c2ccc(OC)c(NCC(=O)c3c[nH]c4cc(OC)ccc34)c2)n1 [Example 96] ?
**Result** 0.1 to 19 nM

**Query** # input compound: Cc1nsc(-c2ccc(C)c(NCC(=O)N3CCc4c3cccc4C(C)(C)O)c2)n1 [Example 22] ; wanted: its IC50
**Result** 0.1 to 19 nM

**Query** // IC50 lookup, key: Cc1ccc(-c2ccc(C)c(NCC(=O)N3CCc4c3cccc4N3C4CCC3CC(O)C4)c2)o1 (stereo not drawn) [Example 36]
**Result** 20 to 39 nM

**Query** Field request: IC50 | item: O=C(CNc1cc(-c2nc(Cl)ns2)ccc1Cl)N1CCc2c(O)cccc21 [Example 39]
**Result** 20 to 39 nM

**Query** Give the measured IC50 of Cc1nsc(-c2ccc(C)c(NCC(=O)N3CCc4c3cccc4[C@](C)(O)CO)c2)n1 [Example 65] .
**Result** 0.1 to 19 nM

**Query** Can you share its IC50? I mean this compound: Cc1nsc(-c2ccc(C)c(NCC(=O)c3cn4c5c(cccc35)OCC(C)(O)C4)c2)n1 (stereo not drawn) [Example 105]
**Result** 20 to 39 nM

**Query** Which IC50 value is on record for CCc1noc(-c2ccc(C)c(NCC(=O)c3cn(C)c4ccccc34)c2)n1 [Example 111] ?
**Result** 40 to 69 nM

**Query** IC50 lookup needed for COc1ccc(-c2ccc(C)cn2)cc1NCC(=O)N1CCc2cc(F)c(F)cc21 [Example 118] , thanks.
**Result** 40 to 69 nM
